B1: TPR 5TU (parent)
chain: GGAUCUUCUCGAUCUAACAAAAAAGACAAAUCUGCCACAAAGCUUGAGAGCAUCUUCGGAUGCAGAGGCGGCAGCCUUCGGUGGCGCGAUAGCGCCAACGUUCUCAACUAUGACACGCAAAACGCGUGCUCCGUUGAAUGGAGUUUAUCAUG

variants of: B1; experiment: polymerase ribozyme fitness, log enrichment relative to wild type (log ratio); higher = more active; in vitro selection for triplet polymerase activity
Fewer inactive variants are shown than the library holds.
measuredParameter: polymerase ribozyme fitness (log ratio)

mutationName | measuredParameter | testResult
A12C U13G C18G A21G U101A A110U A120U G136C G140U G152U | polymerase ribozyme fitness (log ratio) | ≤ -4.2
C5U U13C C85U U101G C105A U109G A110G | polymerase ribozyme fitness (log ratio) | ≤ -4.2
C54U U77C G84A U109C | polymerase ribozyme fitness (log ratio) | ≤ -4.2
C76A U102G | polymerase ribozyme fitness (log ratio) | ≤ -4.2
U6A C14G C85G U90G A113U | polymerase ribozyme fitness (log ratio) | ≤ -4.2
